Provide the recorded GI50 for the entries that follow.
Assay: Antiproliferative activity against HREC assessed as reduction in cell number incubated for 44 hrs by alamar blue based fluorescence assay
Format: functional
Conditions: Homo sapiens

Given the molecule `O=C1/C(=C/c2ccc(O)cc2)COc2cc(O)cc(O)c21` , what is its reported GI50? 60 µM

Another: `COc1cc(O)cc(OC)c1C(=O)/C=C/c1ccc(O)cc1` > 100 µM

Another: `COc1cc(O)cc2c1C(=O)[C@H](Cc1ccc(O)c(O)c1)CO2` > 100 µM

Another: COc1ccc(CC2COc3cc(OC)c(OC)c(OC)c3C2)cc1O (racemic) 0.00023 µM

Another: `COc1c(O)cc2c(c1O)C(=O)[C@H](Cc1ccc(O)c(O)c1)CO2` > 100 µM

Another: `O=C1c2c(O)cc(O)cc2OC[C@]12Cc1cc3c(cc12)OCO3` > 100 µM

Another: `O=C1c2c(O)cc(O)cc2OC[C@H]1Cc1ccc(O)c(O)c1` > 100 µM

Another: `COc1ccc(C[C@H]2COc3cc(OC(C)=O)cc(OC(C)=O)c3C2=O)cc1O` > 100 µM

Another: COc1ccc(CC2(O)COc3cc(O)cc(O)c3C2=O)cc1 (configuration not stated) > 100 µM

Another: `COc1cc2c(c(OC)c1OC)C(=O)/C(=C/c1ccc(Cl)c(O)c1)CO2` 0.11 µM

Another: `COc1ccc(/C=C2\COc3c(OC)c(O)cc(O)c3C2=O)cc1` > 100 µM

Another: `COc1c(O)cc(O)c2c1OC[C@@H](Cc1ccc(O)cc1)C2=O` 64 to 100 µM

====

Experiment: Antiproliferative activity against HUVEC assessed as reduction in cell number incubated for 44 hrs by alamar blue based fluorescence assay
Details: human, HUVEC cells
QUANTITY: GI50 at 44 h

Given the compound `COc1ccc(C[C@H]2COc3cc(OC(C)=O)cc(OC(C)=O)c3C2=O)cc1O` , what is its reported GI50 at 44 h? 92 µM

Another: `COc1ccc(C[C@@H]2COc3cc(O)cc(O)c3C2=O)cc1` > 100 µM

Another: `COc1cc(O)cc(OC)c1C(=O)/C=C/c1ccc(O)cc1` > 100 µM

Another: `COc1cc(OC(C)=O)cc2c1C(=O)/C(=C/c1ccc(OC(C)=O)cc1)CO2` 43 µM

Another: `COc1ccc(/C=C2\COc3cc(OC(C)=O)cc(O)c3C2=O)cc1O` 26 µM

Another: `COc1cc(O)cc2c1C(=O)/C(=C/c1ccc(O)c(O)c1)CO2` > 100 µM

Another: `CC(=O)Oc1cc(O)cc2c1C(=O)/C(=C/c1ccc(O)c(O)c1)CO2` 5 µM

Another: `COc1cc2c(cc1O)[C@@]1(COc3cc(O)cc(O)c3C1=O)C2` > 100 µM

Another: `COc1cc2c(cc1O)C[C@]21COc2cc(OC(C)=O)cc(O)c2C1=O` > 100 µM

Another: `CC(=O)Oc1cc(C[C@H]2COc3cc(O)cc(O)c3C2=O)ccc1O` > 100 µM

Another: COc1ccc(CC2(O)COc3cc(O)cc(O)c3C2=O)cc1 (stereo unspecified) > 100 µM

Another: `COc1c(O)cc2c(c1O)C(=O)[C@H](Cc1ccc(O)cc1)CO2` > 100 µM

Another: `COc1ccc(/C=C2\COc3cc(OC(C)=O)c(O)c(O)c3C2=O)cc1OC(C)=O` 11 µM

Another: `COc1ccc(/C=C2\COc3cc(O)c(O)c(O)c3C2=O)cc1O` 41 µM

Another: `COc1cc2c(cc1O)C[C@]21COc2cc(O)cc(O)c2C1=O` > 100 µM

Another: `COc1cc(O)c2c(c1)OC[C@]1(Cc3c1cc(OC)c(OC)c3O)C2=O` > 100 µM

Another: `O=C1CCOc2cc(O)cc(O)c21` > 100 µM

Another: `COc1cc2c(cc1O)C[C@]21COc2cc(OC(C)=O)cc(OC(C)=O)c2C1=O` > 100 µM

Another: `O=C1c2c(O)cc(O)cc2OC[C@H]1Cc1ccc(O)cc1` > 100 µM

Another: `COc1cc(O)c2c(c1)OC[C@]1(Cc3c1cc(OC)c(OC)c3OC)C2=O` > 100 µM

Another: `COc1cc(O)cc2c1C(=O)[C@H](Cc1ccc(O)cc1)CO2` > 100 µM

====

Provide the recorded GI50 at 44 h for the entries that follow.
Assay: Cytotoxicity against human 92-1 cells assessed as reduction in cell number incubated for 44 hrs by alamar blue based fluorescence assay

Given the compound `COc1ccc(C[C@@H]2COc3cc(O)cc(O)c3C2=O)cc1` , what is its reported GI50 at 44 h? > 100 µM

Another: `CCOc1ccc(C(=O)/C=C/c2ccc(OC)c(OC)c2)c(O)c1C` > 100 µM

Another: `COc1ccc(/C=C2\COc3cc(OC)c(OC)c(OC)c3C2=O)cc1O` 8.2 µM

Another: `CC(=O)Oc1cc(O)cc2c1C(=O)/C(=C/c1ccc(O)c(O)c1)CO2` > 100 µM

Another: `COc1cc(O)cc2c1C(=O)[C@H](Cc1ccc(O)c(O)c1)CO2` > 100 µM

Another: `COc1cc2c(cc1O)C[C@]21COc2cc(OC(C)=O)cc(O)c2C1=O` > 100 µM

Another: `O=C1CCOc2cc(O)cc(O)c21` > 100 µM

Another: `COc1ccc(/C=C2\COc3cc(O)c(O)c(O)c3C2=O)cc1O` > 100 µM

Another: `COc1ccc(/C=C2\COc3cc(OC(C)=O)c(O)c(O)c3C2=O)cc1OC(C)=O` 69 µM

Another: `COc1cc(OC(C)=O)cc2c1C(=O)/C(=C/c1ccc(OC(C)=O)cc1)CO2` > 100 µM

Another: `COc1ccc2c(c1OC)OC/C(=C\c1ccc(SC)cc1)C2=O` > 100 µM

====

Provide the recorded log10 of GI50 at 44 h for the entries that follow.
Assay: Cytotoxicity against human Y79 cells assessed as reduction in cell number incubated for 44 hrs by alamar blue based fluorescence assay
Plainly stated, the numbers are log10 of GI50 at 44 h given in µM.

Given the molecule `COc1ccc(/C=C2\COc3cc(OC)c(OC)c(O)c3C2=O)cc1O` , what is its reported log10 of GI50 at 44 h? 0.38

Another: `COc1ccc(/C=C2\COc3cc(O)c(O)c(O)c3C2=O)cc1O` 1.36

Another: `COc1ccc(/C=C2\COc3cc(OC(C)=O)c(O)c(O)c3C2=O)cc1OC(C)=O` 1.46

Another: `COc1ccc(C[C@@H]2COc3cc(OC)c(OC)c(OC)c3C2=O)cc1O` 1.93

Another: `COc1cc(OC)c2c(c1)OC/C(=C\c1ccc(SC)cc1)C2=O` 0.30

====

Provide the recorded GI50 for the entries that follow.
Test: Antiproliferative activity against HREC assessed as reduction in cell number incubated for 44 hrs by alamar blue based fluorescence assay
Assay type: functional
Conditions: Homo sapiens
Report as a plain number; the unit µM is understood.

Given the compound `COc1ccc(C[C@@H]2COc3cc(OC)c(OC)c(OC)c3C2=O)cc1O` , what is its reported GI50? 0.035

Another: `CC(=O)Oc1cc(O)cc2c1C(=O)/C(=C/c1ccc(O)c(O)c1)CO2` 1.4

Another: `COc1ccc2c(c1OC)OC/C(=C\c1ccc(SC)cc1)C2=O` 3.6

Another: COc1ccc(CC2COc3cc(OC)c(OC)c(OC)c3C2=O)cc1O (racemic) 0.21

Another: `COc1ccc(/C=C2\COc3cc(O)c(O)c(O)c3C2=O)cc1O` 17

Another: `COc1ccc(C[C@]2(O)COc3cc(OC)cc(O)c3C2=O)cc1` 64

Another: `COc1c(O)cc(O)c2c1OC/C(=C\c1ccc(O)cc1)C2=O` 40

Another: `COc1ccc(/C=C2\COc3cc(OC)c(OC)c(O)c3C2=O)cc1O` 0.26

Another: `COc1cc(OC)c2c(c1)OC/C(=C\c1ccc(SC)cc1)C2=O` 2.5

Another: `COc1ccc(/C=C2\COc3cc(OC)c(OC)c(OC)c3C2=O)cc1O` 2.2

====

Experiment: Cytotoxicity against human Y79 cells assessed as reduction in cell number incubated for 44 hrs by alamar blue based fluorescence assay
QUANTITY: GI50 at 44 h

Given the molecule `COc1cc2c(cc1O)C[C@]21COc2cc(OC(C)=O)cc(O)c2C1=O` , what is its reported GI50 at 44 h? > 100 µM

Another: `COc1ccc2c(c1OC)OC/C(=C\c1ccc(SC)cc1)C2=O` 11 µM

Another: `O=C1c2c(O)cc(O)cc2OC[C@H]1Cc1ccc(O)c(O)c1` > 100 µM

Another: `COc1c(O)cc2c(c1O)C(=O)[C@H](Cc1ccc(O)c(O)c1)CO2` > 100 µM

Another: `COc1cc(O)c2c(c1)OC[C@]1(Cc3c1cc(OC)c(OC)c3O)C2=O` > 100 µM

Another: `COc1ccc(/C=C2\COc3cc(OC(C)=O)cc(O)c3C2=O)cc1O` 58 µM

Another: `COc1cc2c(c(OC)c1OC)C(=O)/C(=C/c1ccc(Cl)c(O)c1)CO2` 13 µM

Another: `COc1cc(OC(C)=O)cc2c1C(=O)/C(=C/c1ccc(OC(C)=O)cc1)CO2` > 100 µM

Another: O=Cc1ccc(O)cc1 [4-HYDROXYBENZALDEHYDE] > 100 µM

Another: `COc1ccc(C[C@H]2COc3cc(OC(C)=O)cc(OC(C)=O)c3C2=O)cc1O` > 100 µM

Another: COc1ccc(CC2COc3cc(OC)c(OC)c(OC)c3C2)cc1O (racemic) 18 µM

Another: `COc1ccc(C[C@]2(O)COc3cc(O)cc(O)c3C2=O)cc1` > 100 µM

Another: `CC(=O)Oc1cc(C[C@H]2COc3cc(O)cc(O)c3C2=O)ccc1O` > 100 µM

Another: `COc1cc2c(cc1O)C[C@]21COc2cc(O)cc(O)c2C1=O` > 100 µM

Another: `COc1cc(O)c2c(c1)OC[C@]1(Cc3c1cc(OC)c(OC)c3OC)C2=O` > 100 µM

Another: `COc1cc(O)cc2c1C(=O)/C(=C/c1ccc(O)c(O)c1)CO2` > 100 µM

Another: `COc1ccc(/C=C2\COc3c(OC)c(O)cc(O)c3C2=O)cc1` > 100 µM

Another: `O=C1/C(=C/c2ccc(O)cc2)COc2cc(O)cc(O)c21` > 100 µM

Another: COc1ccc(CC2COc3cc(OC)c(OC)c(OC)c3C2=O)cc1O (racemic) > 100 µM

Another: `O=C1c2c(O)cc(O)cc2OC[C@]12Cc1cc3c(cc12)OCO3` > 100 µM

Another: `COc1cc(O)cc2c1C(=O)[C@H](Cc1ccc(O)cc1)CO2` > 100 µM

Another: `O=C1c2c(O)cc(O)cc2OC[C@H]1Cc1ccc(O)cc1` > 100 µM

Another: `COc1c(O)cc(O)c2c1OC/C(=C\c1ccc(O)cc1)C2=O` > 100 µM

Another: `CC(=O)Oc1cc(O)cc2c1C(=O)/C(=C/c1ccc(O)c(O)c1)CO2` 2.5 µM

Another: `COc1c(O)cc2c(c1O)C(=O)[C@H](Cc1ccc(O)cc1)CO2` > 100 µM

Another: `COc1c(O)cc(O)c2c1OC[C@@H](Cc1ccc(O)cc1)C2=O` > 100 µM

Another: `O=C1/C(=C/c2ccc(O)c(O)c2)COc2cc(O)cc(O)c21` > 100 µM

Another: `CCOc1ccc(C(=O)/C=C/c2ccc(OC)c(OC)c2)c(O)c1C` > 100 µM
